Target: wt PTEN (Homo sapiens, UniProt P60484)
Construct: full-length, six-histidine tag at the C-terminus, expressed in Escherichia coli BL21 (DE3)
Test: SPR equilibrium binding to sparsely-tethered bilayer (stBLM)
Conditions: read-out: Kd (μM) / Component a

# Compound, Kd / µM
rows = [
    ("CCCCCCCCCCCCCCCC(=O)OC[C@H](COP(=O)(O)O[C@@H]1[C@H](O)[C@H](O)[C@@H](OP(=O)(O)O)[C@H](OP(=O)(O)O)[C@H]1O)OC(=O)CCCCCCCCCCCCCCC [DPPI(4,5)P2]", 1.9),
]

----------
Molecular target: wt PTEN (Homo sapiens, UniProt P60484, C124S)
Construct: full-length, six-histidine tag at the C-terminus, expressed in Escherichia coli BL21 (DE3)
Test: SPR equilibrium binding to sparsely-tethered bilayer (stBLM)

# Compound, Assay System, Kd [nM]
rows = [
    ("CCCCCCCCCCCCCCCC(=O)OC[C@H](COP(=O)(O)O[C@H]1[C@H](O)[C@@H](OP(=O)(O)O)[C@H](OP(=O)(O)O)[C@@H](OP(=O)(O)O)[C@H]1O)OC(=O)CCCCCCCCCCCCCCC", "wt PTEN (Homo sapiens, UniProt P60484, C124S)", 120),
]
